Source: PubChem BioAssay AID1159580

test: chemical genetic growth profiling, strain panel (AID 1159580);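 also: tested at 20 µM; growth read once vehicle control cultures reached saturation at 30 °C; 1 = growth at the plate median or of vehicle wells; lower values mean less growth of the strain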; settings: S. cerevisiae deletion strains, growth OD, locus YOR231W, strain MKK1
Out of some 5,500 compounds screened, about 2,000 (36%) were called active. About 18% were inconclusive and are not listed. Rule as the data show it: active = normalized growth mostly below about 0.91 (no sharp cut-off); inconclusive = no clear call, values can overlap the other calls; inactive = mostly above about 0.92. The list shows a part of the results.
Tick one outcome: active, inactive

Previously resolved entries follow.
# outcome recorded in this test, key = NC[C@H]1O[C@H](O[C@H]2C(O[C@@H]3O[C@H](CO)[C@@H](O)[C@H]3O)[C@@H](O)[C@H](N)C[C@@H]2N)[C@H](N)[C@@H](O)[C@@H]1O (some centres not stated) inactive

Test call, this compound: CCc1cccc2c3c([nH]c12)C(CC)(CC(=O)O)OCC3 (configuration not stated) inactive

I would be grateful if you could indicate the recorded call for COc1ccc2c(c1OC)OC[C@@H](c1ccc(OC)c(OC)c1OC)C2 . inactive

Could you check what this test reported for CC[C@@H](CO)NC(=O)[C@@H]1C=C2c3cccc4[nH]cc(c34)C[C@H]2N(C)C1 ? inactive

// return assay outcome for COc1cc(-c2coc3cc(O[C@@H]4O[C@H](CO)[C@@H](O)[C@H](O)[C@H]4O)c(OC)c(O)c3c2=O)cc(O)c1OC inactive

Further cases:
Query: recorded result category for CC(=O)[C@@]1(O)CCC2C3CCC4=CC(=O)CC[C@]4(C)C3CC[C@@]21C (some centres not stated) in this test inactive

What did the test return for COc1cc2c(cc1OC)[C@@H]1C(=O)c3ccc4c(c3O[C@@H]1CO2)CC(C(C)C)O4 (some centres not stated) ? inactive

Which outcome did this test record for the compound CCCCCCCCCCCCCCCCCCOCC(O)CO (configuration not stated) ? inactive

// param item: O1[As]2O[As]3O[As]1O[As](O2)O3 ; yields the recorded call inactive

Recorded call for S=C(Nc1ccc(Cl)cc1)Nc1ccc(Cl)cc1 ? inactive

// return assay outcome for O=C(Nc1cc2c(s1)-c1cc(Cl)ccc1SC2)Oc1ccccc1 inactive

Check the results log: what was the call for C[C@]12CCC(=O)C=C1CCC1C2[C@@H](O)C[C@@]2(C)C1CC[C@]2(O)C(=O)COC(=O)CCC(=O)O (some centres not stated) ? inactive

Entry C#C[C@]1(O)CCC2C3CCC4=Cc5oncc5C[C@]4(C)C3CC[C@@]21C (some centres not stated) : call = ? inactive

----------
Catalogue of compounds with associated normalized growth
assay: chemical genetic growth profiling, strain panel (AID 1159580);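 also: tested at 20 µM; growth read once vehicle control cultures reached saturation at 30 °C; 1 = growth at the plate median or of vehicle wells; lower values mean less growth of the strain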; conditions: S. cerevisiae deletion strains, growth OD, locus YEL003W, strain gim4, hits give low values
Hit rate of the full screen: of about 5,500 compounds, about 2,000 (36%) were called active. Roughly 18% stayed inconclusive and do not appear here. The list shows a part of the results.
Field format: numeric only.

# annotated cases, reported normalized growth shown
Looking up CC1(C)C=Cc2cc3ccc(=O)oc3cc2O1 , I found its normalized growth recorded as 0.951

Entry under test: NC(=O)NO . Its normalized growth was 1.02

Others:
Consider Cc1onc(-c2ccccc2Cl)c1C(=O)N[C@@H]1C(=O)N2[C@@H]1SC(C)(C)[C@@H]2C(=O)O . Its measured normalized growth is 1.02

Measured normalized growth, CN[C@@H]1[C@@H](O[C@H]2O[C@H](CO)[C@@H](N)[C@H](O)[C@H]2O)O[C@H]2C[C@@H](N)[C@H](O[C@H]3[C@H](O)[C@@H](O)[C@H](N)C[C@@H]3N)O[C@@H]2[C@@H]1O : 1

normalized growth reported for this compound NC[C@H]1O[C@H](O[C@H]2[C@H](O)[C@@H](O[C@H]3O[C@H](CO)[C@@H](O)[C@H](N)[C@H]3O)[C@H](N)C[C@@H]2N)[C@H](N)C[C@@H]1O : 1.03

normalized growth measured on C1CCC(C(CC2CCCCN2)C2CCCCC2)CC1 (centres undefined) = 0.946

Entry COC1(C)CCC2OC2(C)CCC2C1CC2(C)C (centres undefined) , normalized growth reported as 1.01

Documented normalized growth of CC1(C)S[C@@H]2[C@H](NC(=O)[C@H](C(=O)O)c3cccs3)C(=O)N2[C@H]1C(=O)O : 1.01

The compound listed as CCOC([O-])=Nc1c[n+](N2CCOCC2)no1 shows normalized growth equal to 1

Sure, the documented normalized growth for COc1cc(O)cc(OC)c1OC is 0.987
